Reference source for all entries: ChEMBL document CHEMBL2016479

EXPERIMENTAL PROTOCOL: Apparent permeability of the compound
Type: ADME
PROTOCOL CONDITIONS: not told
Entries and their Papp values follow.
Please state the figure in ×10⁻⁶ cm/s; there is no need to write the unit.

// known answers, use as guide
>>> recorded_number("O=C(N1CC[C@](c2cc(F)ccc2F)(S(=O)(=O)c2ccc(Cl)cc2)[C@H](O)C1)C1(C(F)(F)F)CC1 (racemic)")
31.1
>>> recorded_number("O=C(N1CCC(c2cc(F)ccc2F)(S(=O)(=O)c2ccc(Cl)cc2)CC1)C1(C(F)(F)F)CC1")
37.3

response.value for Cn1cc(C(=O)N2CCC(c3cc(F)ccc3F)(S(=O)(=O)c3ccc(Cl)cc3)CC2)c(C(F)(F)F)n1 (field: Papp) = 30.7

====

EXPERIMENTAL PROTOCOL: Plasma clearance in Sprague-Dawley rat at 0.05 mg/kg, iv
Assay type: ADME, organism-based
Set-up: dose 0.05 mg/kg, route intravenous
READOUT KIND: clearance

>>> result("O=C(N1CC[C@](c2cc(F)ccc2F)(S(=O)(=O)c2ccc(Cl)cc2)[C@H](O)C1)C1(C(F)(F)F)CC1 (single isomer, unassigned; 12c)")
"5.7 mL/min/kg"

response.value for Cn1nc(C(F)(F)F)c(C(=O)N2CCC(c3cc(F)ccc3F)(S(=O)(=O)c3ccc(Cl)cc3)CC2)c1Cl (field: clearance) = 79 mL/min/kg

response.value for COc1ccc2c(C(=O)N3CCC(c4cc(F)ccc4F)(S(=O)(=O)c4ccc(Cl)cc4)CC3)c[nH]c2c1 (field: clearance) = > 84 mL/min/kg

response.value for O=C(c1ccccc1C(F)(F)F)N1CCC(c2cc(F)ccc2F)(S(=O)(=O)c2ccc(Cl)cc2)CC1 (field: clearance) = 31.9 mL/min/kg

====

EXPERIMENTAL PROTOCOL: Drug uptake in APP-YAC transgenic mouse plasma at 100 mg/kg, po after 6 hrs
Format: ADME, organism-based
Parameters: dose 100 mg/kg, route oral
READOUT KIND: concentration at 6 h (nM)
Please state the figure in nM; there is no need to write the unit.

// known answers, use as guide
>>> recorded_number("Cn1cc(C(=O)N2CCC(c3cc(F)ccc3F)(S(=O)(=O)c3ccc(Cl)cc3)CC2)c(C(F)(F)F)n1")
1780
>>> recorded_number("O=C(N1CCC(c2cc(F)ccc2F)(S(=O)(=O)c2ccc(Cl)cc2)CC1)C1(C(F)(F)F)CC1")
650

Next item in the queue.
response.value for O=C(N1CC[C@](c2cc(F)ccc2F)(S(=O)(=O)c2ccc(Cl)cc2)[C@H](O)C1)C1(C(F)(F)F)CC1 (racemic) (field: concentration at 6 h) = 11100

====

STUDY TARGET: Gamma-secretase
EXPERIMENTAL PROTOCOL: Inhibition of gamma-secretase in human SH-SY5Y cells co-expressing APP C-terminal fragment SPA4CT assessed as inhibition of amyloid beta 42 production by electrochemiluminescent assay
Type: cell-based
pIC50: −log10 of the molar value.
Is pIC50 at least 7? Then Condition met. If not, Condition not met.

Consider the worked cases shown below.
>>> group("O=C(c1cnc(Cl)nc1C(F)(F)F)N1CCC(c2cc(F)ccc2F)(S(=O)(=O)c2ccc(Cl)cc2)CC1")
"Condition not met"
>>> group("COC(=O)C1(C(=O)N2CCC(c3cc(F)ccc3F)(S(=O)(=O)c3ccc(Cl)cc3)CC2)CC1")
"Condition met"
>>> group("O=C(N1CC[C@](c2cc(F)ccc2F)(S(=O)(=O)c2ccc(Cl)cc2)[C@H](O)C1)C1(C(F)(F)F)CC1 (single isomer, unassigned; 12c)")
"Condition met"
>>> group("O=C(N1CCC(c2cc(F)ccc2F)(S(=O)(=O)c2ccc(Cl)cc2)CC1)C1(C(F)(F)F)CC1")
"Condition met"
>>> group("CC1(C(=O)N2CCC(c3cc(F)ccc3F)(S(=O)(=O)c3ccc(Cl)cc3)CC2)CC1")
"Condition met"
>>> group("O=C(N1CCC(c2cc(F)ccc2F)(S(=O)(=O)c2ccc(Cl)cc2)CC1)C1(C(F)(F)F)CCCCC1")
"Condition not met"

Is it the case that O=C(CCC(F)(F)F)N1CCC(c2cc(F)ccc2F)(S(=O)(=O)c2ccc(Cl)cc2)CC1 has pIC50 reaching or exceeding 7?
Condition not met

Is it the case that O=C(N1CCC(c2cc(F)ccc2F)(S(=O)(=O)c2ccc(Cl)cc2)CC1)C1(C(F)(F)F)CCC1 has pIC50 reaching or exceeding 7?
Condition met

Is it the case that O=C(N1CC[C@](c2cc(F)ccc2F)(S(=O)(=O)c2ccc(Cl)cc2)[C@H](O)C1)C1(C(F)(F)F)CC1 (racemic) has pIC50 reaching or exceeding 7?
Condition met

Is it the case that Cn1nc(C(F)(F)F)c(C(=O)N2CCC(c3cc(F)ccc3F)(S(=O)(=O)c3ccc(Cl)cc3)CC2)c1Cl has pIC50 reaching or exceeding 7?
Condition not met

Is it the case that CC1(C(=O)N2CCC(c3cc(F)ccc3F)(S(=O)(=O)c3ccc(Cl)cc3)CC2)COC1 has pIC50 reaching or exceeding 7?
Condition not met

Is it the case that O=C(c1ccccc1C(F)(F)F)N1CCC(c2cc(F)ccc2F)(S(=O)(=O)c2ccc(Cl)cc2)CC1 has pIC50 reaching or exceeding 7?
Condition not met

====

EXPERIMENTAL PROTOCOL: Solubility of the compound
Format: physicochemical
READOUT KIND: solubility (µM)
Please state the figure in µM; there is no need to write the unit.

>>> recorded_number("Cn1cc(C(=O)N2CCC(c3cc(F)ccc3F)(S(=O)(=O)c3ccc(Cl)cc3)CC2)c(C(F)(F)F)n1")
30.6
>>> recorded_number("O=C(N1CCC(c2cc(F)ccc2F)(S(=O)(=O)c2ccc(Cl)cc2)CC1)C1(C(F)(F)F)CC1")
26.8

Next item in the queue.
response.value for O=C(N1CC[C@](c2cc(F)ccc2F)(S(=O)(=O)c2ccc(Cl)cc2)[C@H](O)C1)C1(C(F)(F)F)CC1 (racemic) (field: solubility) = 174

====

STUDY TARGET: Gamma-secretase
EXPERIMENTAL PROTOCOL: Inhibition of gamma-secretase in human SH-SY5Y cells co-expressing APP C-terminal fragment SPA4CT assessed as inhibition of amyloid beta 40 production by electrochemiluminescent assay
Type: cell-based
READOUT KIND: log10(IC50) (log10 of the value in nM)
Recall that a logarithmic scale is used here: each number is log10 of IC50 in nM.

// known answers, use as guide
>>> recorded_number("O=C(N1CC[C@](c2cc(F)ccc2F)(S(=O)(=O)c2ccc(Cl)cc2)[C@@H](O)C1)C1(C(F)(F)F)CC1 (single isomer, unassigned; 11c)")
3.25
>>> recorded_number("O=C(CC(F)(F)F)N1CCC(c2cc(F)ccc2F)(S(=O)(=O)c2ccc(Cl)cc2)CC1")
1.90
>>> recorded_number("O=C(N1CCC(c2cc(F)ccc2F)(S(=O)(=O)c2ccc(Cl)cc2)CC1)C1(C(F)(F)F)CCC1")
1.85
>>> recorded_number("Cn1ccnc1C(=O)N1CCC(c2cc(F)ccc2F)(S(=O)(=O)c2ccc(Cl)cc2)CC1")
2.30
>>> recorded_number("O=C(N1CC[C@](c2cc(F)ccc2F)(S(=O)(=O)c2ccc(Cl)cc2)[C@H](O)C1)C1(C(F)(F)F)CC1 (single isomer, unassigned; 12b)")
2.04

Next item in the queue.
With Gamma-secretase as the test system, COc1ccc2c(C(=O)N3CCC(c4cc(F)ccc4F)(S(=O)(=O)c4ccc(Cl)cc4)CC3)c[nH]c2c1 showed log10(IC50) of 2.43

====

STUDY TARGET: Gamma-secretase
EXPERIMENTAL PROTOCOL: Inhibition of gamma-secretase in human SH-SY5Y cells co-expressing APP C-terminal fragment SPA4CT assessed as inhibition of amyloid beta 42 production by electrochemiluminescent assay
Assay type: cell-based
READOUT KIND: pIC50
Quick note: pIC50 means taking -log10 of the concentration in moles per liter.

// known answers, use as guide
>>> recorded_number("O=C(CC(F)(F)F)N1CCC(c2cc(F)ccc2F)(S(=O)(=O)c2ccc(Cl)cc2)CC1")
7.05
>>> recorded_number("Cn1cc(C(=O)N2CCC(c3cc(F)ccc3F)(S(=O)(=O)c3ccc(Cl)cc3)CC2)c(C(F)(F)F)n1")
6.92
>>> recorded_number("O=C(N1CC[C@](c2cc(F)ccc2F)(S(=O)(=O)c2ccc(Cl)cc2)[C@@H](O)C1)C1(C(F)(F)F)CC1 (single isomer, unassigned; 11b)")
7.05
>>> recorded_number("CC(C)(O)C(=O)N1CCC(c2cc(F)ccc2F)(S(=O)(=O)c2ccc(Cl)cc2)CC1")
6.92

response.value for O=C(N1CC[C@](c2cc(F)ccc2F)(S(=O)(=O)c2ccc(Cl)cc2)[C@H](O)C1)C1(C(F)(F)F)CC1 (single isomer, unassigned; 12b) (field: pIC50) = 7.10
